Answer each item with its documented % Max Activation.
Target: Full-length glucokinase (beta cell isoform) (Homo sapiens, UniProt P35557)
Construct: Full-length glucokinase (beta cell isoform) was His-tagged at N-terminus; His tag (N); made in house
Sequence (P35557 1-465): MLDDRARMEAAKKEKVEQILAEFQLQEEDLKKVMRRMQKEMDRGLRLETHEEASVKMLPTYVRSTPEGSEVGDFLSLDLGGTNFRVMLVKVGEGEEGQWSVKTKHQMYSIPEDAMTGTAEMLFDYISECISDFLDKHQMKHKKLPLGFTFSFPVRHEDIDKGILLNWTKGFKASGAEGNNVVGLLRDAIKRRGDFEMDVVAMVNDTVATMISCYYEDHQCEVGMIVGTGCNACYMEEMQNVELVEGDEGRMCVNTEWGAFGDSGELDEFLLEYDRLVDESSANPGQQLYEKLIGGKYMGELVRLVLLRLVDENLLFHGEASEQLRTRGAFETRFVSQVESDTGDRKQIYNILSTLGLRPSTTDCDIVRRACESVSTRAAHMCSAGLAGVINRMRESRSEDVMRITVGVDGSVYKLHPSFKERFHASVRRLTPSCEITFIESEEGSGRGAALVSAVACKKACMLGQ
Assay: Glucokinase biochemical assay (PK/LDH-coupled, NADH depletion at 340 nm): % activation, EC50, % max activation
Conditions: 5 mM glucose; fitted maximum activation
Form entry: value (%) — number only.

# input Data request, read-out % Max Activation, for COCC1Cc2c(Oc3ccc(C(=O)N(C)C)cc3)cc(C(=O)Nc3ccn(C)n3)cc2O1 (single isomer, unassigned; (-)) [Example 213]
# output 113

# input Data request, read-out % Max Activation, for COCC1Cc2c(Oc3ccc(C(=O)N4CCC4)cc3)cc(C(=O)Nc3ccn(C)n3)cc2O1 (single isomer, unassigned; (-)) [Example 209]
# output 96

# input Data request, read-out % Max Activation, for Cn1ccc(NC(=O)c2cc(Oc3ccc(CO)cc3F)c3c(c2)OC(C)(C)C3)n1
# output 150

# input Data request, read-out % Max Activation, for COCC1(C)Cc2c(Oc3ccc(S(=O)(=O)C4CC4)cc3)cc(C(=O)Nc3cnn(C)n3)cc2O1 (single isomer, unassigned; (+))
# output 246

# input Data request, read-out % Max Activation, for CC1Cc2c(Oc3ccc(S(C)(=O)=O)cc3)cc(C(=O)Nc3ccn(C)n3)cc2O1 (single isomer, unassigned; (+)) [Example 13]
# output 196

# input Data request, read-out % Max Activation, for COCC1Cc2c(Oc3ccc(C(=O)N(C)C)cc3)cc(C(=O)Nc3ccn(C)n3)cc2O1 (single isomer, unassigned; (+)) [Example 212]
# output 144

# input Data request, read-out % Max Activation, for COCC1(C)Cc2c(Oc3ccc(S(=O)(=O)C4CC4)cc3)cc(C(=O)Nc3ccn(C)n3)cc2O1 (single isomer, unassigned; (-)) [Example 247]
# output 254

# input Data request, read-out % Max Activation, for Cn1ccc(NC(=O)c2cc(Oc3ccc(C(=O)N4CCC4)c(F)c3)c3c(c2)OC(C)(C)C3)n1
# output 171

# input Data request, read-out % Max Activation, for COCC1Cc2c(Oc3ccc(C(=O)N4CCC4)cc3)cc(C(=O)Nc3ccn(C)n3)cc2O1 (single isomer, unassigned; (+)) [Example 210]
# output 143

# input Data request, read-out % Max Activation, for CC1Cc2c(Oc3ccc(S(C)(=O)=O)cc3)cc(C(=O)Nc3ccn(C)n3)cc2O1 (single isomer, unassigned; (-)) [Example 12]
# output 195

# input Data request, read-out % Max Activation, for COCC1Cc2c(Oc3ccc(C(=O)N(C)C)c(F)c3)cc(C(=O)Nc3ccn(C)n3)cc2O1 (single isomer, unassigned; (+)) [Example 207]
# output 142

# input Data request, read-out % Max Activation, for COCC1(C)Cc2c(Oc3ccc(C(=O)N4CCC4)c(F)c3)cc(C(=O)Nc3ccn(C)n3)cc2O1 (single isomer, unassigned; (+))
# output 234

# input Data request, read-out % Max Activation, for COCC1Cc2c(Oc3ccc(C(=O)N(C)C)c(F)c3)cc(C(=O)Nc3ccn(C)n3)cc2O1 (single isomer, unassigned; (-)) [Example 206]
# output 102

# input Data request, read-out % Max Activation, for COCC1(C)Cc2c(Oc3ccc(S(=O)(=O)C4CC4)cc3)cc(C(=O)Nc3ccn(C)n3)cc2O1 (single isomer, unassigned; (+)) [Example 248]
# output 225

###

Target: Full-length glucokinase (beta cell isoform) (Homo sapiens, UniProt P35557)
Construct: Full-length glucokinase (beta cell isoform) was His-tagged at N-terminus; His tag (N); made in house
Assay: Glucokinase biochemical assay (PK/LDH-coupled, NADH depletion at 340 nm): % activation, EC50, % max activation
Details: 10 uM compound; 5 mM glucose; % Activation=(Va/Vo−1)×100; read-out: % Activation at 10 uM
result.type: activation at 10 µM (%)
Form entry: value (%) — number only.

# input Data request, read-out activation at 10 µM, for CC(C)Oc1cc(C(=O)Nc2ccn(C)n2)cc2c1CC(CN(C)C)O2 (stereo not shown)
# output 43.1

# input Data request, read-out activation at 10 µM, for Cc1ccc(NC(=O)c2cc(Oc3ccc(S(C)(=O)=O)c(F)c3)c3c(c2)OC(C)(CO)C3)nc1 (stereo not shown)
# output 201

# input Data request, read-out activation at 10 µM, for COc1cnc(NC(=O)c2cc(Oc3ccc(C(=O)N(C)C)nc3)c3cc(C)oc3c2)cn1
# output 84.3

# input Data request, read-out activation at 10 µM, for CCCc1noc(COc2cc(C(=O)Nc3ccn(C)n3)cc3c2CC(C)(C)O3)n1
# output 171

# input Data request, read-out activation at 10 µM, for Cn1ncc(NC(=O)c2cc(Oc3ccc(S(C)(=O)=O)c(F)c3)c3c(c2)OC(C)(C)C3)n1
# output 325

# input Data request, read-out activation at 10 µM, for Cn1ccc(NC(=O)c2cc(Oc3ccc(C(=O)NCCO)c(F)c3)c3c(c2)OC(C)(C)C3)n1
# output 182

# input Data request, read-out activation at 10 µM, for Cc1csc2cc(C(=O)Nc3ccn(C)n3)cc(Oc3ccc(C(=O)N(C)C)cc3)c12
# output 12.3

# input Data request, read-out activation at 10 µM, for Cn1ncc(NC(=O)c2cc(Oc3ccc(S(=O)(=O)C4CC4)cc3)c3c(c2)OC(C)(CO)C3)n1 (stereo not shown)
# output 222

# input Data request, read-out activation at 10 µM, for COc1ccnc(NC(=O)c2cc(Oc3ccc(S(C)(=O)=O)cc3)c3cc(C(=O)N(C)C)oc3c2)c1
# output 73.8

# input Data request, read-out activation at 10 µM, for CN(C)C(=O)c1ccc(Oc2cc(C(=O)Nc3ccn(C)n3)cc3c2CC(C)(C)O3)cc1
# output 105

# input Data request, read-out activation at 10 µM, for CN1CCN(C(=O)c2ccc(Oc3cc(C(=O)Nc4ccn(C)n4)cc4c3CC(C)(C)O4)cc2F)CC1
# output 125

# input Data request, read-out activation at 10 µM, for Cn1ccc(NC(=O)c2cc(Oc3ccc(C(=O)N4CCCCC4)c(F)c3)c3c(c2)OC(C)(C)C3)n1
# output 109

# input Data request, read-out activation at 10 µM, for COCc1cc2c(Oc3ccc(S(C)(=O)=O)cc3)cc(C(=O)Nc3cnc(OC)cn3)cc2o1
# output 112

# input Data request, read-out activation at 10 µM, for COCc1cc2c(Oc3ccc(S(C)(=O)=O)cc3)cc(C(=O)Nc3ccc(C)cn3)cc2o1
# output 72.3

# input Data request, read-out activation at 10 µM, for CN(C)C(=O)c1ccc(Oc2cc(C(=O)Nc3cnn(C)n3)cc3c2CC(C)(C)O3)cc1
# output 168

# input Data request, read-out activation at 10 µM, for CCc1cc2c(Oc3ccc(S(C)(=O)=O)cc3)cc(C(=O)Nc3ccc(C)cn3)cc2o1
# output 131

# input Data request, read-out activation at 10 µM, for Cn1ccc(NC(=O)c2cc(Oc3ccc(S(C)(=O)=O)cc3)c3ccsc3c2)n1
# output 77.4

# input Data request, read-out activation at 10 µM, for CCNC(=O)c1ccc(Oc2cc(C(=O)Nc3ccn(C)n3)cc3c2CC(C)(C)O3)cn1
# output 172

# input Data request, read-out activation at 10 µM, for CC1(C)Cc2c(Oc3ccc(S(C)(=O)=O)cc3)cc(C(=O)Nc3nnc(C4CC4)s3)cc2O1
# output 123

# input Data request, read-out activation at 10 µM, for Cn1ccc(NC(=O)c2cc(Oc3cccc(S(C)(=O)=O)c3)c3c(c2)OC(C)(C)C3)n1
# output 130

# input Data request, read-out activation at 10 µM, for Cn1ccc(NC(=O)c2cc(Oc3ccc(S(C)(=O)=O)cc3)c3cc(C(F)F)oc3c2)n1
# output 161

# input Data request, read-out activation at 10 µM, for Cn1ccc(NC(=O)c2cc(Oc3ccc(S(C)(=O)=O)cc3)c3ccoc3c2)n1
# output 82.5

# input Data request, read-out activation at 10 µM, for Cc1cc2c(Oc3ccc(S(C)(=O)=O)cc3)cc(C(=O)Nc3ccn(C)n3)cc2o1
# output 148

# input Data request, read-out activation at 10 µM, for COCc1cc2c(Oc3ccc(S(C)(=O)=O)cc3)cc(C(=O)Nc3cnn(C)n3)cc2o1
# output 131

# input Data request, read-out activation at 10 µM, for Cc1ccc(NC(=O)c2cc(Oc3ccc(S(C)(=O)=O)cc3F)c3c(c2)OC(C)(C)C3)nc1
# output 80.5

# input Data request, read-out activation at 10 µM, for Cc1ccc(NC(=O)c2cc(Oc3ccc(S(C)(=O)=O)cc3)c3c(c2)OC(C)C3)nc1 (stereo not shown)
# output 98.7

# input Data request, read-out activation at 10 µM, for Cc1ccc(NC(=O)c2cc(Oc3ccc(S(C)(=O)=O)cc3)c3cc(CN(C)C)oc3c2)nc1
# output 59.7

# input Data request, read-out activation at 10 µM, for Cn1ccc(NC(=O)c2cc(Oc3ccc(C(=O)N4CCOCC4)c(F)c3)c3c(c2)OC(C)(C)C3)n1
# output 129

# input Data request, read-out activation at 10 µM, for Cc1cc2c(Oc3ccc(S(C)(=O)=O)cc3)cc(C(=O)Nc3ccc(C(F)(F)F)cn3)cc2o1
# output 32.1

# input Data request, read-out activation at 10 µM, for Cc1ccc(NC(=O)c2cc(Oc3cc(F)ccc3S(C)(=O)=O)c3c(c2)OC(C)(CO)C3)nc1 (stereo not shown)
# output 55.6

# input Data request, read-out activation at 10 µM, for Cc1cc2cc(C(=O)Nc3ccn(C)n3)cc(Oc3ccc(S(C)(=O)=O)cc3)c2s1
# output 125

The reported measurements were obtained from patent US8119624B2.
